# assay-procedure: NCI Yeast Anticancer Drug Screen. Data for the rad50 strain (AID 155);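 further: 0% = growth of vehicle-only cultures of the same strain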
# condition-info: S. cerevisiae rad50 strain growth inhibition; at 50.0 µM
About 79,000 compounds went through this panel and 15% of them were active in at least one assay; those are over-represented in the sample as a whole. Active and inactive are the calls of the source. No stated cut-off is given here; in the data, active means growth inhibition above about 70%; inactive means the rest. Where a SMILES comes first, the peptide text is derived from it. [ ]: non-standard residue; d: D form. The star is where a group is joined. Phe(4-NO2) = N[CH](Cc1ccc([N+](=O)[O-])cc1)C(=O)O; Boc = CC(C)(C)OC(=O)*
Labels: True (active), False (inactive)

>  <compound>
O=C1/C(=C/c2cccc([N+](=O)[O-])c2)Sc2scc(-c3ccc([N+](=O)[O-])cc3)[n+]21

>  <class>
True

$$$$
>  <compound>
Cc1ccc2c(c1)C1(SC(CC(=O)O)C(=O)N1c1ccc(Cl)cc1)C(=O)N2 (centres undefined)

>  <class>
False

$$$$
>  <compound>
OCN(CO)c1ccc2c(c1)Cc1cc(F)ccc1-2

>  <class>
True

$$$$
>  <compound>
CNC(=O)CCC(NC(=O)OC(C)(C)C)C(=O)NC(Cc1ccc([N+](=O)[O-])cc1)C(=O)NCC(=O)NC (centres undefined) (Boc-Glu(NHMe)-[Phe(4-NO2)]-Gly-NHMe; configuration not given here)

>  <class>
False

$$$$

---

# assay-procedure: NCI Yeast Anticancer Drug Screen. Data for the sgs1 mgt1 strain (AID 161);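 further: 0% = growth of cultures given vehicle only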
# condition-info: S. cerevisiae sgs1 mgt1 strain, at 50.0 µM, stronger effect = higher value
# Description: Growth inhibition of yeast strains with defined genetic alterations is measured as a screen for potential anti-cancer activity. Selected strains with alterations in DNA damage repair or cell cycle control were exposed to compounds and growth inhibition was measured relative to vehicle treated controls. The strain used in this assay is sgs1 mgt1
About 79,000 compounds went through this panel and 15% of them were active in at least one assay; those are over-represented in the sample as a whole. Where a SMILES comes first, the peptide text is derived from it. [ ]: non-standard residue; d: D form. Phe(4-Cl) = N[CH](Cc1ccc(Cl)cc1)C(=O)O; 3Pal = N[CH](Cc1cccnc1)C(=O)O
Binary classification by growth inhibition, with 90% as an inclusive lower bound for Criterion met; all other cases are Criterion not met.

>  <compound>
O=C1OCC2=C1C(c1ccc(Cl)cc1)c1cc3c(cc1O2)OCO3 (stereo not drawn)

>  <class>
Criterion not met

$$$$
>  <compound>
COc1ccc(Oc2ccc(C(=O)C(CN(C)C)CN(C)C)cc2)cc1

>  <class>
Criterion not met

$$$$
>  <compound>
CC(=O)N(C)c1ccc(/C=C2\C=Cc3ccccc32)cc1

>  <class>
Criterion not met

$$$$
>  <compound>
CCOC(=O)C(=N\Nc1ccccc1C)/C(C)=N\NC(N)=S

>  <class>
Criterion not met

$$$$
>  <compound>
C/C(=N\NC(=S)Nc1ccc(Cl)cc1)c1nc2ncccc2[nH]1

>  <class>
Criterion not met

$$$$
>  <compound>
COc1cc(C2C(Cl)C(=O)N2NC(=O)c2ccc(NC(C)=O)cc2)cc(OC)c1OC (stereo not drawn)

>  <class>
Criterion not met

$$$$
>  <compound>
CC1([N+](=O)[O-])C(=O)C2(N3CCOCC3)CCCC2C1c1ccccc1 (stereo not drawn)

>  <class>
Criterion not met

$$$$
>  <compound>
O=C1C=C/C(=C(/c2ccc(O)c(O)c2)c2ccccc2S(=O)(=O)O)C=C1O

>  <class>
Criterion not met

$$$$
>  <compound>
CC(=O)Oc1ccccc1N(C(C)=O)S(=O)(=O)c1ccc(C)cc1

>  <class>
Criterion met

$$$$
>  <compound>
C[n+]1c(-c2ccc(/C=N\NC(=O)c3cccc(C(=O)N/N=C/c4ccc(-c5cn6ccccc6[n+]5C)cc4)c3)cc2)cn2ccccc21

>  <class>
Criterion met

$$$$
>  <compound>
CCCCCN(CCCCC)C(=O)CCl

>  <class>
Criterion not met

$$$$
>  <compound>
N#CC1(C#N)C2C=CC(C3CCC=C32)C1(C#N)C#N (stereo not drawn)

>  <class>
Criterion not met

$$$$
>  <compound>
COC(=O)c1c(C(N)=O)c(C)n(NC(=O)Nc2ccccc2)c1C

>  <class>
Criterion met

$$$$
>  <compound>
CCCCCCCCCCCCCCCC(=O)NCC[N+](CC)(CC)Cc1ccc(C[N+](CC)(CC)CCNC(=O)CCCCCCCCCCCCCCC)cc1

>  <class>
Criterion met

$$$$
>  <compound>
CCC(=C(c1ccc(OCCN(C)C)cc1)c1cccc(O)c1)c1ccccc1 (mixture of isomers)

>  <class>
Criterion met

$$$$
>  <compound>
CCOC(=O)/C(=C\c1ccc(C)cc1)C(C)=O

>  <class>
Criterion met

$$$$
>  <compound>
COc1ccc2nc3cc(Cl)ccc3c(NCCC[N+](C)(C)CCCCCCCCCC[N+](C)(C)CCCNc3c4ccc(Cl)cc4nc4ccc(OC)cc34)c2c1

>  <class>
Criterion met

$$$$
>  <compound>
CCCCC(=O)OC1=C(Br)C(=O)c2ccccc2C1=O

>  <class>
Criterion not met

$$$$
>  <compound>
O=C(C[P+](c1ccccc1)(c1ccccc1)c1ccccc1)c1ccc(Br)cc1

>  <class>
Criterion met

$$$$
>  <compound>
CCCCN1CSC(=S)N(Cc2ccccc2)C1

>  <class>
Criterion not met

$$$$
>  <compound>
O=C(NCc1ccc(F)cc1)c1ccc(C(=O)NCc2ccc(F)cc2)cc1

>  <class>
Criterion not met

$$$$
>  <compound>
c1ccc(COc2ccc(C[P+](c3ccccc3)(c3ccccc3)c3ccccc3)cc2)cc1

>  <class>
Criterion met

$$$$
>  <compound>
COc1ccc2c(c1)[n+]([O-])c(-c1ccc(C)cc1)c(N)[n+]2[O-]

>  <class>
Criterion met

$$$$
>  <compound>
O/N=C(/CCc1ccccc1)c1ccccc1

>  <class>
Criterion met

$$$$
>  <compound>
O=C(Cl)C(c1ccccc1)(c1ccccc1)c1ccccc1

>  <class>
Criterion met

$$$$
>  <compound>
CC(=O)NC(Cc1ccc(Cl)cc1)C(=O)NC(Cc1ccc(Cl)cc1)C(=O)NC(Cc1cccnc1)C(=O)NC(CO)C(=O)NC(Cc1ccc(O)cc1)C(=O)NC(CCCN=C(N)N)C(=O)NC(CC(C)C)C(=O)NC(CCCN=C(N)N)C(=O)N1CCCC1C(=O)NC(C)C(=O)O (stereo not drawn) (Ac-[Phe(4-Cl)][Phe(4-Cl)][3Pal]SYRLRPA-OH; configuration not given here)

>  <class>
Criterion not met

$$$$
>  <compound>
CSc1ccc(C(=O)C(=O)c2ccc(SC)s2)s1

>  <class>
Criterion not met

$$$$
>  <compound>
Nc1n[nH]c(=O)c2cccnc12

>  <class>
Criterion not met

$$$$
>  <compound>
CCOc1ccc(/C=N\NC(=O)c2ccco2)cc1OCC

>  <class>
Criterion not met

$$$$
>  <compound>
O=C(Cc1ccc(C2=NCCN2)cc1[N+](=O)[O-])c1ccc(C2=NCCN2)cc1

>  <class>
Criterion not met

$$$$
>  <compound>
CCS(=O)(=O)OC(C)CCl (stereo not drawn)

>  <class>
Criterion not met

$$$$
>  <compound>
COC(=O)N/N=C(/CC1(O)C(=O)Nc2ccccc21)c1ccc(Cl)cc1Cl (stereo not drawn)

>  <class>
Criterion met

$$$$
>  <compound>
CCCN(Cc1ccccc1)S(=O)(=O)c1ccc(C)cc1

>  <class>
Criterion not met

$$$$

---

# assay-procedure: NCI Yeast Anticancer Drug Screen. Data for the rad50 strain (AID 155);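 further: 0% = growth of vehicle-only cultures of the same strain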
# condition-info: S. cerevisiae rad50 strain growth inhibition; at 5.0 µM (retest, dose inferred, filed as 0.5); stronger effect = higher value
# Description: Growth inhibition of yeast strains with defined genetic alterations is measured as a screen for potential anti-cancer activity. Selected strains with alterations in DNA damage repair or cell cycle control were exposed to compounds and growth inhibition was measured relative to vehicle treated controls. The strain used in this assay is rad50
About 79,000 compounds went through this panel and 15% of them were active in at least one assay; those are over-represented in the sample as a whole. Active and inactive are the calls of the source. Rule as the data show it: active = growth inhibition above about 70%; inactive = the rest.
observed-property: growth inhibition

>  <compound>
COC(=O)C1C(=O)CC(c2ccccc2)C1c1ccccc1 (stereo unspecified)

>  <result>
2% (inactive)

$$$$
>  <compound>
Cc1cccc(NC(=O)c2cc3cc(N=Nc4ccccc4Cl)ccc3oc2=O)c1

>  <result>
6% (inactive)

$$$$
>  <compound>
OC(c1ccc(Cl)cc1)c1ccc(Cl)cc1

>  <result>
-7% (inactive)

$$$$
>  <compound>
CCN(CC)CCOc1ccc(-c2cc(-c3ccccc3)nc(N)n2)cc1

>  <result>
49% (inactive)

$$$$
>  <compound>
O=S(=O)(N=S(c1ccc(Cl)cc1)c1ccc(Cl)cc1)c1ccccc1

>  <result>
0% (inactive)

$$$$
>  <compound>
CCC(C1SC(=S)NC1=O)C1SC(=S)NC1=O (stereo unspecified)

>  <result>
3% (inactive)

$$$$
>  <compound>
CCN(CC)C(=S)N=Nc1c(O)[nH]c2ccccc12

>  <result>
80% (active)

$$$$
>  <compound>
Cc1ccc2c(C3Cc4ccccc4N3C(=O)/C=C\C(=O)O)c(C)[nH]c2c1 (stereo unspecified)

>  <result>
23% (inactive)

$$$$
>  <compound>
COc1cccc2c1C(=O)c1c(O)c3c(c(O)c1C2=O)C[C@@](O)(C(C)=O)C[C@@H]3OC1CC([N+]([O-])(Cc2ccccc2)Cc2ccccc2)C(O)C(C)O1 (stereo partly specified)

>  <result>
79% (active)

$$$$
>  <compound>
Cc1ccc(C(=O)OCCN2CCOCC2)c([N+](=O)[O-])c1OCc1ccccc1

>  <result>
14% (inactive)

$$$$
>  <compound>
CN(C)c1ccc(/C=C/c2ccnc3ccccc23)c(O)c1

>  <result>
0% (inactive)

$$$$
>  <compound>
CCOC(=O)/C=C(\C)c1ccc([N+](=O)[O-])cc1

>  <result>
-158% (inactive)

$$$$
>  <compound>
CC(C)(C)CC(C)(C)c1ccc(Oc2ccc([N+](=O)[O-])cc2S(=O)(=O)O)cc1

>  <result>
-2% (inactive)

$$$$
>  <compound>
Cc1ccnc2ccc3ccccc3c12

>  <result>
-142% (inactive)

$$$$
>  <compound>
CCCC(C1=C(O)CC(C)CC1=O)C1=C(O)CC(C)CC1=O (stereo unspecified)

>  <result>
-6% (inactive)

$$$$
>  <compound>
C/C=C(\C)CC/C=C/CO[Si](C)(C)C(C)(C)C

>  <result>
-19% (inactive)

$$$$
>  <compound>
O=C(CN1CCOCC1)Nc1nc(-c2ccc(Cl)cc2)cs1

>  <result>
66% (inactive)

$$$$
>  <compound>
CCc1nc2ccc(N=NN(C)C)cc2[nH]1

>  <result>
21% (inactive)

$$$$
>  <compound>
CC(O)C(NC(=O)OCc1ccccc1)C(=O)OC(c1ccccc1)c1ccccc1 (stereo unspecified)

>  <result>
0% (inactive)

$$$$
>  <compound>
O=C(/N=C1\N=Nc2nc(C(C(=O)c3cccs3)c3nc4n(c3O)/C(=N/C(=O)Nc3ccc(Cl)cc3)N=N4)c(O)n21)Nc1ccc(Cl)cc1 (stereo unspecified)

>  <result>
-22% (inactive)

$$$$
>  <compound>
O=C(C(=O)n1ncc(Cl)c(Cl)c1=O)n1ncc(Cl)c(Cl)c1=O

>  <result>
5% (inactive)

$$$$
>  <compound>
C1=C(c2ccccc2)OC(c2ccccc2)=C[P+]1(c1ccccc1)c1ccccc1

>  <result>
96% (active)

$$$$
>  <compound>
CC(=O)Nc1ccc(/C=N\NC(=O)c2ccco2)cc1

>  <result>
-5% (inactive)

$$$$
>  <compound>
O=[N+]([O-])c1ccc(CN2CCN(c3nccs3)CC2)cc1

>  <result>
5% (inactive)

$$$$
>  <compound>
O=C(CN1CCCCC1)CC(O)(C(F)(F)F)C(F)(F)F

>  <result>
29% (inactive)

$$$$
>  <compound>
NNc1nc(Nc2ccccc2)nc(Nc2ccccc2)n1

>  <result>
-8% (inactive)

$$$$
>  <compound>
Cc1nc2c(nc1C)C(=O)C1=C(C2=O)C2C=CC1CC2

>  <result>
0% (inactive)

$$$$
>  <compound>
CCCCCCCCCCCCCCCC[N+](C)(C)C(C)c1ccccc1 (stereo unspecified)

>  <result>
98% (active)

$$$$
>  <compound>
CCc1c(O)sc2c(c1=O)C(=NCC(C)C)CC(C)(C)N2

>  <result>
-5% (inactive)

$$$$
>  <compound>
O=C(NC(c1ccccc1)N1CCOCC1)c1ccccc1 (stereo unspecified)

>  <result>
2% (inactive)

$$$$
>  <compound>
O=C(Nc1ccc(C(=O)Nc2ccc3c(O)cc(S(=O)(=O)O)cc3c2)cc1)c1ccccc1

>  <result>
0% (inactive)

$$$$
>  <compound>
NC(CSC1(c2ccc(Cl)cc2)c2ccccc2-c2ccccc21)C(=O)O (stereo unspecified)

>  <result>
16% (inactive)

$$$$
>  <compound>
CC(=O)N(C)NC(=O)c1ccccc1

>  <result>
1% (inactive)

$$$$
>  <compound>
CCC(c1ccc(OC)cc1)C(CC)c1ccc(O)c(CN(C)C)c1 (stereo unspecified)

>  <result>
-2% (inactive)

$$$$
>  <compound>
CN(C)CCSCCN1c2ccccc2Sc2ccc(Cl)cc21

>  <result>
-5% (inactive)

$$$$
>  <compound>
Cc1cccc2c(=O)c3ccccc3oc12

>  <result>
5% (inactive)

$$$$
>  <compound>
CCCCCCCCCCCC[n+]1ccc(C)cc1

>  <result>
33% (inactive)

$$$$
>  <compound>
Nc1c(/C=C/c2cc3ccc(C4=NCCN4)cc3[nH]2)[nH]c2cc(C3=NCCN3)ccc12

>  <result>
78% (active)

$$$$
>  <compound>
Cc1cccc2c(CC(=O)O)cccc12

>  <result>
-5% (inactive)

$$$$
>  <compound>
CCCCCCCCCCC(O)CN1CCN(c2cccc(Cl)c2)CC1 (stereo unspecified)

>  <result>
95% (active)

$$$$
>  <compound>
N#CC(C(=O)CCCC(=O)Nc1cccc([N+](=O)[O-])c1)c1cccc2ccccc12 (stereo unspecified)

>  <result>
8% (inactive)

$$$$
>  <compound>
CCCCCCCCCCCC(=O)OC/C=C/COC(=O)c1ccccc1

>  <result>
2% (inactive)

$$$$
>  <compound>
O=C(COc1ccc(Cl)cc1)OCCO

>  <result>
0% (inactive)

$$$$
>  <compound>
O/N=C(/Cc1ccccc1)c1ccc2c(c1)OCO2

>  <result>
-4% (inactive)

$$$$
>  <compound>
O=C1CSC(=Nc2ccc(F)cc2F)N1Cc1cccs1

>  <result>
44% (inactive)

$$$$
>  <compound>
O=C(c1ccccc1)c1ccc2c(c1Cl)C(=O)c1ccccc1C2=O

>  <result>
-6% (inactive)

$$$$

Recorded values, source PubChem BioAssay (NCI).
